Every entry's value here was drawn from PubChem BioAssay (NCI).

So I've got a bunch of compounds here, and I need their TGI values.
# System: NCI/ADR-RES ovarian
# EXPERIMENT DESCRIPTION: NCI tumour cell line growth inhibition, 48 h

Answered examples (2):
1. Cc1cc2nc(N3C(=O)/C(=C/c4ccccc4S)N=C3c3ccccc3)sc2cc1C :: 92.3 µM
2. COC(=O)C1=C(C(=O)OC)SC(=C(Cl)C(=S)Nc2ccccc2O)S1 :: 35.1 µM

Please state, for each entry, its recorded TGI.
1. O=Cc1ccccc1B(O)O
2. CC(C)(C)C(=O)CP(=O)(O)O
3. COc1ccc(OC2OC(COC(c3ccccc3)(c3ccc(OC)cc3)c3ccc(OC)cc3)C(O)C(O)C2O)cc1 (stereo not drawn)
4. COc1ccc(S(=O)(=O)Nc2cc(/C=C\c3cc(OC)c(OC)c(OC)c3)ccc2OC)cc1
5. O=C(O)NCC1CCCCC1 (tested in a mixture with another compound)
6. CC(C)(C)OC(=O)N1CCC2(C)CC(=O)CC=C12 (stereo not drawn)
7. CCN(CC)CCn1c2ccccc2c(=O)c2c(O)ccc(O)c21

["> 100 µM", "> 100 µM", "29.2 µM", "30.8 µM", "83.8 µM", "> 100 µM", "44 µM"]

Take each entry in turn and give its TGI.
1. CNCCNc1c2c(c(NCCNC)c3[nH]ccc13)C(=O)c1ccccc1C2=O
2. CCCCN(Cc1ccccc1)C(=NC#N)N(Cc1ccccc1)Cc1ccccc1
3. Cc1ccc2c(c1)C(C)Cc1c(Cl)ncnc1N2C (stereo not drawn)
4. C[n+]1ccc(Nc2ccc(NC(=O)c3ccc(Nc4cc[n+](C)c5ccc([N+](=O)[O-])cc45)cc3[N+](=O)[O-])cc2)cc1
5. CC(C)(C)OC(=O)NC(CCC(=O)OCc1ccccc1)C(=O)NCCCO (stereo not drawn)
6. COc1ccc2c(c1)-c1[nH]c3ccc(OC)cc3c1CC2
7. N=[N+]=CC(=O)CCC(NC(=O)C(CCC(=O)C=[N+]=N)NC(=O)CCC(N)C(=O)O)C(=O)O (stereo not drawn)
8. OC1[C@H](O)CN(OCc2ccccc2)C[C@@H]1O (stereo partly drawn)

["8.21 µM", "59.7 µM", "23.1 µM", "> 100 µM", "> 100 µM", "24.8 µM", "> 100 µM", "> 100 µM"]

I would be grateful if you could provide TGI for each of the following entries.
1. COC(=O)c1c2c(cc3c1CC1(Cc4ccc(C(C)=O)cc4C1)C3)CCC2 (stereo not drawn)
2. FC(F)(F)c1ccc(C#Cc2ccccc2C#Cc2ccccc2)cc1
3. CCCCCCCCCCC(C(O)c1ccccc1)N1CCCCC1 (stereo not drawn)

1: > 100 µM; 2: > 100 µM; 3: 10.7 µM

Need TGI for each of these compounds.
1. COc1ccc(/C(=N\O)c2cc(C)c(OC)c(C)c2)cc1O
2. COc1ccccc1N1CCN(CCc2c[nH]c3cc4c(cc23)OCO4)CC1

1: > 100 µM; 2: > 100 µM

###

# System: SNB-75 CNS
# EXPERIMENT DESCRIPTION: NCI tumour cell line growth inhibition, 48 h
PROPERTY MEASURED: GI50

1) COC(=O)C1CCCN1C(=O)[C@@H]1CCCN1C(=O)[C@H](Cc1c[nH]c2ccccc12)NC(=S)Nc1cc(C(F)(F)F)cc(C(F)(F)F)c1 (stereo not given in full) :: 2480 nM

I need GI50 for every entry listed below, if you could help.
1. COc1ccccc1N1CCN(CCc2c[nH]c3cc4c(cc23)OCO4)CC1
2. S=c1ssc(Oc2ccccc2)c1Cl
3. C=C(C)[C@@H]1CC[C@]2(C)[C@H](CC=C3[C@@H]4[C@@H](C)[C@H](C)CC[C@]4(C(N)=O)CC[C@]32C)[C@@]1(C)CCC#N
4. Cc1ccc2c(c1)C(C)Cc1c(Cl)ncnc1N2C (stereo not given)
5. CCC[CH2][Sn]([CH2]CCC)([CH2]CCC)[O]C(=O)c1ccc(Cl)cc1Cl

["25000 nM", "18000 nM", "3570 nM", "394 nM", "117 nM"]

Record GI50 for all entries; do not skip any.
1. CCCCCCCCCCC(C(O)c1ccccc1)N1CCCCC1 (stereo not given)
2. CNC(=O)CC1NC(=O)c2csc(n2)-c2ccc(-c3nc(C4=NC(C(=O)N5CCCC5C(N)=O)CO4)cs3)nc2-c2csc(n2)-c2csc(n2)C(C(C)C)NC(=O)CNC(=O)c2csc(n2)C(C(C)C)NC(=O)c2nc1sc2C (stereo not given)
3. O=C(c1ccccc1)C(Br)C(Br)c1cccc([N+](=O)[O-])c1 (stereo not given)

2320 nM
> 25000 nM
6480 nM

State recorded GI50 with SNB-75 CNS, entry Cc1cc(NCc2cc(Nc3ccnc4cc(Cl)ccc34)ccc2F)nc(N2CCN(C)CC2)n1 , no comment.
1210 nM
